Biological target: CBL-B protein (Homo sapiens)
Sequence (Q13191 whole entry): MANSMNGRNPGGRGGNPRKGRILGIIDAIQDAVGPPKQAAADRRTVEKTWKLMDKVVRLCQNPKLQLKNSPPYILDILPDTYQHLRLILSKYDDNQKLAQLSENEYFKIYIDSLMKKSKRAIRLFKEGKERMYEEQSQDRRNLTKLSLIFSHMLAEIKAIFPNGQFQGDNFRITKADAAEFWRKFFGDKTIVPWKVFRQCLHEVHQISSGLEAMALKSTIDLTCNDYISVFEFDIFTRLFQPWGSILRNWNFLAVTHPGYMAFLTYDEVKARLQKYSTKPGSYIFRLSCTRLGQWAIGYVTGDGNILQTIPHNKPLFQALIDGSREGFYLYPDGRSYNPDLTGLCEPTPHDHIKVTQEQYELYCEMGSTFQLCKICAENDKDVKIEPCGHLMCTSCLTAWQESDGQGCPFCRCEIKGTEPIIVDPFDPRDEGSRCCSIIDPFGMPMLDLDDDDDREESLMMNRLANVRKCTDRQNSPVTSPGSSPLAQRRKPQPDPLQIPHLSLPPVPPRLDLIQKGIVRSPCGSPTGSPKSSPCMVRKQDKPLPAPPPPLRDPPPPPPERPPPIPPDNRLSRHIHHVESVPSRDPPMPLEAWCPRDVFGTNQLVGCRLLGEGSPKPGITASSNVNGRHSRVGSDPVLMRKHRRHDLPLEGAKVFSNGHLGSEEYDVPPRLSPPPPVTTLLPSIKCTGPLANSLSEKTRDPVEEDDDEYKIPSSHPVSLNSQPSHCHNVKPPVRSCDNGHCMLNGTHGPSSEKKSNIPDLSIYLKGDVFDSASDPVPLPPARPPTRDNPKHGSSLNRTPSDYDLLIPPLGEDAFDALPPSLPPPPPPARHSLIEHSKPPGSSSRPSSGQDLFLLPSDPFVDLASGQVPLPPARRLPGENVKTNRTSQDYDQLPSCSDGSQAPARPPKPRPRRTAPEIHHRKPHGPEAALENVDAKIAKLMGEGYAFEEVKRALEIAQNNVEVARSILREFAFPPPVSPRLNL
Test: CBL-B binding experiment (Streptavidin-Tb cryptate / Ligand L1 displacement)
Conditions: 8 nM CBL-B protein, 25° C., 60 minutes; Ki=Relative IC50/2
endpoint: Ki

Study these solved cases before continuing.
>>> result("C[C@H]1CCCN(Cc2cc3c(C(F)(F)F)cn(-c4ccc([C@]5(c6nncn6C)C[C@H](C)C5)s4)c(=O)c3[nH]2)C1")
"< 50 nM"
>>> result("C[C@H]1CCCN(Cc2cc3c(C(F)(F)F)cn(-c4cccc(C5(Cc6nncn6C)COC5)c4)c(=O)c3[nH]2)C1")
"< 50 nM"

Below: the item to evaluate.
Problem: Item: C[C@H]1CCCN(Cc2cc3c(C(F)(F)F)cn(-c4cc(F)cc([C@]5(c6nncn6C)C[C@@H](C)C5)c4)c(=O)c3[nH]2)C1 Test system: CBL-B protein (Homo sapiens) Read-out: Ki Value: ?
Result: < 50 nM
